The measurements presented in this section are drawn from ChEMBL document CHEMBL4138056.

# System: B-cell line
# Experiment description: Cytotoxicity against Balb/c mouse B cells assessed as decrease cell survival at 100 uM by MTT assay
# Format: cell-based
Observed property: Activity

Here is how some compounds turned out for Activity.
# Compound, Activity
rows = [
    ("CC(=O)Oc1cc(C)c2c(c1C)[C@@H]1OC(=O)[C@@H](C)[C@@H]1CC2", "Toxic"),
    ("CCOc1cc(C)c2c(c1C)[C@@H]1OC(=O)[C@@H](C)[C@@H]1CC2", "Toxic"),
    ("Cc1cc(OC(=O)CCC(=O)Nc2ccccc2Cl)c(C)c2c1CC[C@H]1[C@H](C)C(=O)O[C@@H]21", "Non-Toxic"),
    ("CCCCCCCC(=O)Oc1cc(C)c2c(c1C)[C@@H]1OC(=O)[C@@H](C)[C@@H]1CC2", "Toxic"),
    ("CCCCOc1cc(C)c2c(c1C)[C@@H]1OC(=O)[C@@H](C)[C@@H]1CC2", "Non-Toxic"),
]

// query Bench note: what Activity did CC1=C2[C@H]3OC(=O)[C@@H](C)[C@@H]3CC[C@@]2(C)C=CC1=O [SANTONIN] show?
// result Non-Toxic

// query Follow-up entry: Cc1cc(OC(=O)C(C)C)c(C)c2c1CC[C@H]1[C@H](C)C(=O)O[C@@H]21
// result Non-Toxic

// query Follow-up entry: CCCCCC(=O)Oc1cc(C)c2c(c1C)[C@@H]1OC(=O)[C@@H](C)[C@@H]1CC2
// result Toxic

---

# Test system: B-cell line
# Experiment description: Immunosuppressive activity in Balb/c mouse B cells assessed as inhibition of LPS-induced cell proliferation at 1 uM after 48 hrs by MTT assay relative to control
# Format: functional
Observed property: inhibition at 1 µM (%)
All answers are understood in %, so give the number only.

# Molecule, Target desc, inhibition at 1 µM (%)
data = [
    ("CC1=C2[C@H]3OC(=O)[C@@H](C)[C@@H]3CC[C@@]2(C)C=CC1=O [SANTONIN]", "B-cell line", 19),
    ("CCCCCC(=O)Oc1cc(C)c2c(c1C)[C@@H]1OC(=O)[C@@H](C)[C@@H]1CC2", "B-cell line", 22.9),
    ("Cc1cc(O)c(C)c2c1CC[C@H]1[C@H](C)C(=O)O[C@@H]21", "B-cell line", 23.3),
    ("CCCCOc1cc(C)c2c(c1C)[C@@H]1OC(=O)[C@@H](C)[C@@H]1CC2", "B-cell line", 25.2),
]

// query Bench note: what inhibition at 1 µM did COc1ccc(NC(=O)CCC(=O)Oc2cc(C)c3c(c2C)[C@@H]2OC(=O)[C@@H](C)[C@@H]2CC3)cc1 show?
// result 17.7

// query Follow-up entry: Cc1cc(OC(=O)CCC(=O)O)c(C)c2c1CC[C@H]1[C@H](C)C(=O)O[C@@H]21
// result 33.3

// query Follow-up entry: Cc1cc(OCc2ccc(Cl)cc2)c(C)c2c1CC[C@H]1[C@H](C)C(=O)O[C@@H]21
// result 37

---

# Tested on: B-cell line
# Experiment description: Immunostimulant activity in Balb/c mouse B cells assessed as induction of LPS-induced cell proliferation at 100 uM after 48 hrs by MTT assay relative to control
# Format: cell-based
Observed property: Activity (%)
All answers are understood in %, so give the number only.

Here is how some compounds turned out for Activity.
# Structure notation, Target desc, Activity [%]
records = [
    ("CCCCCC(=O)Oc1cc(C)c2c(c1C)[C@@H]1OC(=O)[C@@H](C)[C@@H]1CC2", "B-cell line", 7.29),
    ("Cc1cc(O)c(C)c2c1CC[C@H]1[C@H](C)C(=O)O[C@@H]21", "B-cell line", 38.25),
    ("Cc1cc(OCc2ccccc2)c(C)c2c1CC[C@H]1[C@H](C)C(=O)O[C@@H]21", "B-cell line", 29),
]

Could you now look at the following compound, please?
// query Bench note: what Activity did CCCCC(=O)Oc1cc(C)c2c(c1C)[C@@H]1OC(=O)[C@@H](C)[C@@H]1CC2 show?
// result 6.25
